These entries and their values trace back to the domain aggregation screens of Martell et al. (2025).

- measurement description: soluble fraction after stress (log2 fold change); higher = more stays soluble; pooled small domains, quantitative proteomics
- conditions: stress: 50 degC
Below: a set of entries, each annotated with reported soluble fraction (log2).
test readout: soluble fraction (log2)

{"seq string": "HMATKEQIKRIYGLGAGLGIVGKDKDDMLHELIFSITGKDSVKQLDDSEFKAVQAELINRMKLA", "test readout": "soluble fraction (log2)", "experimental result": 0.132}
{"seq string": "HMHTGLAELTDRERDVLRLIATGMTNAAIGSALAYSPSTIRADTVSIYRKLEVRGRAEAAAVAVAAGLTQP", "test readout": "soluble fraction (log2)", "experimental result": -1.26}
{"seq string": "HMDSESGAIIRRAVAQLAPKFRSTIVLRLIEGYSTEETAQILQLPVGTVLSRLARAKVQLMNLLTPYKEL", "test readout": "soluble fraction (log2)", "experimental result": -0.126}
{"seq string": "HMPPALTELLSVRTNASGTIDYLLPDRSAGLRVENGSKYSGMVPDSIYRLVAIYEIKDAKEPSAYIYTI", "test readout": "soluble fraction (log2)", "experimental result": -0.00921}
{"seq string": "HMVTKTTYAYERLKREIMDGTLGQGEKLVVNAISQRYQVSPMPIREALLKLEQEGLVQSAPHRGAWVHK", "test readout": "soluble fraction (log2)", "experimental result": -0.345}
{"seq string": "HMNGDYFEYRYAVNGSRSTPPSLSKTSRNPSGWSTTVPTVGNLQYLWFTVAKINGETNSLIQNWSTPARQT", "test readout": "soluble fraction (log2)", "experimental result": -0.13}
{"seq string": "HMKVEFTPAYLKKFKANKNAWKFYEAQTNTYKKQSAWYVISAKQEETRLRRLDLLIYDSENGIHIKPLRR", "test readout": "soluble fraction (log2)", "experimental result": -2.6}
{"seq string": "HMKLSIGGTIEKLRRNKGLSHQQLANALGVTPDTVEKWEINAAYPDITLLSPIARLLGTTLDALLMF", "test readout": "soluble fraction (log2)", "experimental result": -0.649}
{"seq string": "HMAEMRYLDQIYEVNVPLPDLSLEDGDLLARWAVNFHQRYEELFSYRQSDQEIRLVTLRVTVLGELP", "test readout": "soluble fraction (log2)", "experimental result": -0.653}
{"seq string": "HMTQTAVFSKGEQEYYFPLSKVLFFETDGNTINVHTADDIYETRYRLYELEEMLPGSFMRISKSAVVNTNR", "test readout": "soluble fraction (log2)", "experimental result": -0.0904}
{"seq string": "HMFERISELLTDEELAVYKRGRNANASSVPKHADIADYRRATGVEALFGYLYIKGEIDRINQLFELA", "test readout": "soluble fraction (log2)", "experimental result": -0.23}
{"seq string": "HMEPERRHLEVPAEAEGERIDRFLASQLENLSRSRIQALIKAGYVRNRRGTIEDPGLRVKPGDAFVVDLPP", "test readout": "soluble fraction (log2)", "experimental result": 0.44}
{"seq string": "HMRTIPDALIGRPYESVETAIVLEGLQAKRTEVFHPTIRPGTVIRLEPTSGSELLRDGVVEIFVSQGPETT", "test readout": "soluble fraction (log2)", "experimental result": -0.159}
{"seq string": "HMFKITNTLNKTAEVYLTIPENKKGKGKIMISVNGAFHELEAMTENDKIQSGAVVKVVRIENDNILIVET", "test readout": "soluble fraction (log2)", "experimental result": -1.88}
{"seq string": "HMSQDINVFIKTNPENATIIWDGESKGTNGIFKSNAGAHRLRIEMQGYESIDQDIQVSDKQFSFEYNLKKE", "test readout": "soluble fraction (log2)", "experimental result": 0.152}
{"seq string": "HMQETKDEGAQVLLNKINALVAAVQGQIITPEEAAIKLATDGDLDLDVDARVAAIEEFNKKLSEAQNN", "test readout": "soluble fraction (log2)", "experimental result": 0.0497}
